Experiment: Pharmacokinetic analysis in mice
Assay type: in vivo, mouse
Settings: male, BALB/c hairy, mouse, plasma, PO, 50 mg/kg single dose

cpd-smiles | half-life [h]
Cc1cc(/C=C/C#N)cc(C)c1Nc1ccnc(Nc2ccc(C#N)cc2)n1 | 4.91

====

Test: Pharmacokinetic analysis in mice
Assay type: in vivo, mouse
Conditions: male, BALB/c hairy, mouse, plasma, IV, 2 mg/kg single dose
reported-endpoint: AUC(0-t) (µM·h)

cpd-smiles | reported-endpoint | reading
Cc1cc(/C=C/C#N)cc(C)c1Nc1ccnc(Nc2ccc(C#N)cc2)n1 | AUC(0-t) | 20

====

Assay: Pharmacokinetic analysis in mice
Assay type: in vivo, mouse
Details: PO, 50 mg/kg single dose, 50 mg/kg

compound | Cmax
Cc1cc(/C=C/C#N)cc(C)c1Nc1ccnc(Nc2ccc(C#N)cc2)n1 [rilpivirine] | > 20 µM
